test system: Rattus norvegicus; test: Antiinflammatory activity in Wistar rat assessed as inhibition of carrageenan-induced hind paw edema volume at 100 mg/kg, po administered 60 mins before carrageenan challenge after 24 hrs relative to control; format: functional
If the reported inhibition in vivo at 100 mg/kg equals or exceeds 40%, assign 1. If not, assign -1.

CCCCCNC(=O)CC1CCc2cc(OC)c(OC)cc21 (stereo unspecified) : 1

Attention now turns to another entry.
Ask: Would you say COc1cc2c(cc1OC)C(CC(N)=O)CC2 (stereo unspecified) shows inhibition in vivo at 100 mg/kg at minimum 40%?
Reply: -1

====

system: Rattus norvegicus; test: Antiinflammatory activity in Wistar rat assessed as inhibition of carrageenan-induced hind paw edema volume at 100 mg/kg, po administered 60 mins before carrageenan challenge after 24 hrs relative to control; type: functional
PARAMETER: inhibition in vivo at 100 mg/kg (%)
One number for each entry, in %.

# example entries with known answers
COc1cc2c(cc1OC)C(CC(=O)N1CCCC1)CC2 (centres undefined) : 33.3
CCNC(=O)CC1CCc2cc(OC)c(OC)cc21 (centres undefined) : 33.3
COc1cc2c(cc1OC)C(CC(=O)NCCO)CC2 (centres undefined) : 13.3
CCCCNC(=O)CC1CCc2cc(OC)c(OC)cc21 (centres undefined) : 36.7
CNC(=O)CC1CCc2cc(OC)c(OC)cc21 (centres undefined) : 33.3

Count: 4. Required value per item: inhibition in vivo at 100 mg/kg.
1. COc1cc2c(cc1OC)C(CC(=O)NC1CCCCC1)CC2 (centres undefined)
2. COc1cc2c(cc1OC)C(CC(=O)N1CCCCC1)CC2 (centres undefined)
3. COc1cc2c(cc1OC)C(CC(=O)NCc1ccccc1)CC2 (centres undefined)
4. CCCNC(=O)CC1CCc2cc(OC)c(OC)cc21 (centres undefined)

Reply:
1: 53.3; 2: 40; 3: 43.3; 4: 26.7
